assayText: chemical genetic growth profiling, strain panel (AID 1159580);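 also: tested at 20 µM; growth read once vehicle control cultures reached saturation at 30 °C; 1 = growth at the plate median or of vehicle wells; lower values mean less growth of the strain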
reportedConditions: S. cerevisiae deletion strains, growth OD, locus YFR010W, strain ubp6, hits give low values
In all, about 5,500 compounds went through this assay and about 2,000 (36%) were called active. Another 18% or so got no clear call; they are omitted. The list shows a part of the results.
Items are presented alongside their recorded normalized growth.
Form: value (number only, do not type unit).

Worked cases, answers included:
{"columns": ["molecule", "normalized growth"],
 "data": [
  ["COC(=O)Nc1nc2ccc(C(=O)c3ccccc3)cc2[nH]1", 0.98],
  ["Cc1ccc(S(=O)(=O)NC(=O)NN2CC3CCCC3C2)cc1 (centres undefined)", 0.986],
  ["COC(=O)C[C@H]1C(C)(C)C(=O)[C@@H]2CC3C4=CC(=O)O[C@@H](c5ccoc5)[C@]4(C)CCC3[C@@]1(C)C2=O (some centres undefined)", 0.964],
  ["COc1cc(C(=O)O[C@H]2CC[C@@]3(C)[C@@H]4CC[C@H]5[C@]6(O)C[C@H](O)[C@@]7(O)[C@@H](CN8C[C@@H](C)CC[C@H]8[C@@]7(C)O)[C@]6(O)C[C@@]53O[C@]24O)cc(OC)c1OC", 1.02],
  ["COC(=O)Nc1nc2ccc(Sc3ccccc3)cc2[nH]1", 0.995],
  ["C/C=C(/C)C(=O)OC1CCC2(C)C3CCC4C5(O)CC(O)C6(O)C(CN7CC(C)CCC7C6(C)O)C5(O)CC42OC13O (centres undefined)", 0.969]
]}

Query: Fill in: normalized growth of CNC(=O)O/N=C\C(C)(C)SC is ___
Result: 0.998

Query: Fill in: normalized growth of COC(=O)Nc1nc2ccc(S(=O)c3ccccc3)cc2[nH]1 (centres undefined) is ___
Result: 0.988

Query: Fill in: normalized growth of COc1ccc2c3c([nH]c2c1)C(C)=NCC3 is ___
Result: 0.999
